The molecules listed here are annotated with their ALP.
# Organism: Rattus norvegicus
# protocol.details: Open TG-GATES - Regimen: Single
# Format: toxicity, organism-based, Sprague-Dawley
# Parameters: regimen Single, gender Male, age 6 weeks
# condition.label: in vivo, po, 0 mg/kg, 3 h, tissue Plasma, route gavage, dose level Control
measured.metric: ALP (IU/L)

>  <molecule>
Nc1c2c(nc3ccccc13)CCCC2

>  <result.value>
1417

$$$$
>  <molecule>
CN1C(=O)CCS(=O)(=O)C1c1ccc(Cl)cc1 (stereo not drawn)

>  <result.value>
1820.8

$$$$
>  <molecule>
CC(C)NNC(=O)c1ccncc1

>  <result.value>
1798.2

$$$$
>  <molecule>
CNC(=C[N+](=O)[O-])NCCSCc1ccc(CN(C)C)o1

>  <result.value>
1059

$$$$
>  <molecule>
Cc1nnc2n1-c1ccc(Cl)cc1C(c1ccccc1Cl)=NC2

>  <result.value>
1477.8

$$$$
>  <molecule>
CN(C)CCC(c1ccc(Cl)cc1)c1ccccn1 (stereo not drawn)

>  <result.value>
1344.2

$$$$
>  <molecule>
CCOc1ccc(NC(C)=O)cc1

>  <result.value>
1765

$$$$
>  <molecule>
Brc1ccccc1

>  <result.value>
1539.4

$$$$
